B1: Ribonuclease HI, P0A7Y4 (parent)
chain: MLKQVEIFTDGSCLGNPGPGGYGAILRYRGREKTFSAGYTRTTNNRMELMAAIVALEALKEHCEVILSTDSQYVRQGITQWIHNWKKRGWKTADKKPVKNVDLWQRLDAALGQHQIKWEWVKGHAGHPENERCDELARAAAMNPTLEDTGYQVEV

variants of: B1; settings: Escherichia coli (strain K12); pH 3; 49.8 °C; Thermal; CD; glycine-HCl 10 mM; reversible: yes; structure 2RN2; whole UniProt chain shown
Provide the recorded ddG of mutation (higher = less stable) for the entries that follow.
The figure you give is taken to be in kcal/mol; do not add the unit.

So, S68T ? Its ddG of mutation (higher = less stable) was 0.2

So, S68G ? Its ddG of mutation (higher = less stable) was 2.4

So, S68L ? Its ddG of mutation (higher = less stable) was 0.5

So, S68V ? Its ddG of mutation (higher = less stable) was -0.6

So, S68A ? Its ddG of mutation (higher = less stable) was 0.5
